Here, each record is paired with measured pest or weed control at 11208.5 g/ha data.
Test system: green foxtail (Setaria virdis (L.) Beauv.) (GF)
Test: Preemergence herbicide test, soil drench, green foxtail
Assay type: in vivo
Conditions: Setaria, 336 h, 10 lbs/A (11.2 kg/ha) soil drench, two weeks after treatment, vs untreated checks, read-out: Percent Weed Control GF
Description: To illustrate the effectiveness of the previously described substituted oxadiazines of this invention as preemergence herbicides, 300 mg of the chemical was dissolved in a composition comprising 10 mL acetone to which 30 mg of tile emulsifying agent, ethoxylated sorbitan monolaurate, was added. The solution was diluted to 100 mL with distilled water. […] The percent control of the weeds compared to untreated checks was determined two weeks after treatment. […]
Numeric answer only, unit % assumed.

Field: example entries. Status: answers known.
FC(F)(F)C(F)(F)C(F)(F)C1=NC(C(F)(F)F)(C(F)(F)F)N=C(c2ccccc2)O1 [reference compound] ... 0
O=[N+]([O-])c1ccc(C2=NC(C(F)(F)F)(C(F)(F)F)N=C(C(F)(F)F)O2)cc1 ... 80
Fc1cc(F)cc(C2=NC(C(F)(F)F)(C(F)(F)F)N=C(C(F)(F)C(F)(F)F)O2)c1 ... 100
FC(F)(F)C(F)(F)C1=NC(C(F)(F)F)(C(F)(F)F)N=C(c2ccc(Cl)cc2)O1 ... 100
FC(F)(F)C(F)(F)C(F)(F)C1=NC(C(F)(F)F)(C(F)(F)F)N=C(c2cccc(Cl)c2)O1 ... 100

Reading of pest or weed control at 11208.5 g/ha for `FC(F)(F)C1=NC(C(F)(F)F)(C(F)(F)F)N=C(c2ccc(Cl)cc2)O1` with green foxtail (Setaria virdis (L.) Beauv.) (GF): 100

Entry `FC(F)(F)C(F)(F)C1=NC(C(F)(F)F)(C(F)(F)F)N=C(c2ccccc2Cl)O1` under green foxtail (Setaria virdis (L.) Beauv.) (GF) had pest or weed control at 11208.5 g/ha of 100

`Fc1ccc(C2=NC(C(F)(F)F)(C(F)(F)F)N=C(C(F)(F)C(F)(F)F)O2)cc1` tested on green foxtail (Setaria virdis (L.) Beauv.) (GF) gave pest or weed control at 11208.5 g/ha: 50

Where these numbers come from: patent US6514911B1
